TARGET OF ASSAY: GST-Aq-NF-kB (Amphimedon queenslandica, UniProt A9Y5G7 2-389)
Sequence: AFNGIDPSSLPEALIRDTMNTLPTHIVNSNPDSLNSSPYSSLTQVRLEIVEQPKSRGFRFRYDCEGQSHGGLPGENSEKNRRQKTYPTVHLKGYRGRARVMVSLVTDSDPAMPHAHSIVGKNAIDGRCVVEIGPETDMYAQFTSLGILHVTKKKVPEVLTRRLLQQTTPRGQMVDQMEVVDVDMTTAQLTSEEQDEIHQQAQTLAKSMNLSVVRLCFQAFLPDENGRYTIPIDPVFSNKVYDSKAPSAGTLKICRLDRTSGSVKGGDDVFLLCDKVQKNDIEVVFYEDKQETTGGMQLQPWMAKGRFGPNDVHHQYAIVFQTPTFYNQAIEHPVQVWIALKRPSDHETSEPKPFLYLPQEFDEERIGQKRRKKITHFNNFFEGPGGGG
ASSAY EXPLANATION: protein-binding microarray (PBM); PBM: ~300 nM protein, 6 mM HEPES pH 7.8, 80 mM KCl, 0.5 mM EDTA, 0.5 mM EGTA, 6% glycerol, 35 ng/ul poly-dIdC, 1% milk, 1 h, room temperature; Ap Aiptasia and Nv Nematostella (sea anemones) / Co Capsaspora / Aq Amphimedon (sponge) / Dm Drosophila / Hu human; RHD is the Rel homology domain; high values mean tight binding
CONDITION DETAILS: dsDNA, one strand shown
Use MET when the recorded binding signal is no lower than 5 z-score; use NOT MET when it is lower.

hey, is binding signal for this one >= 5 z-score? "CCGATTAACATCACGGGGAAAACTGATGTTAATCGGGTCTTGATTCGCTTGACGCTGCTG"
MET

hey, is binding signal for this one >= 5 z-score? "CCGATTAACATCACTCCCTAAAATGATGTTAATCGGGTCTTGATTCGCTTGACGCTGCTG"
NOT MET

hey, is binding signal for this one >= 5 z-score? "CCGATTAACATCAGACATCCCCCTGATGTTAATCGGGTCTTGATTCGCTTGACGCTGCTG"
MET

hey, is binding signal for this one >= 5 z-score? "CCGATTAACATCAGGACACCCCCTGATGTTAATCGGGTCTTGATTCGCTTGACGCTGCTG"
MET

hey, is binding signal for this one >= 5 z-score? "CCGATTAACATCAGGGGGTAACCTGATGTTAATCGGGTCTTGATTCGCTTGACGCTGCTG"
MET

hey, is binding signal for this one >= 5 z-score? "CCGATTAACATCAAATATTCCCCTGATGTTAATCGGGTCTTGATTCGCTTGACGCTGCTG"
MET

hey, is binding signal for this one >= 5 z-score? "CCGATTAACATCACTCCCCCCCATGATGTTAATCGGGTCTTGATTCGCTTGACGCTGCTG"
NOT MET

hey, is binding signal for this one >= 5 z-score? "CCGATTAACATCACGGAAACTACTGATGTTAATCGGGTCTTGATTCGCTTGACGCTGCTG"
NOT MET

hey, is binding signal for this one >= 5 z-score? "CCGATTAACATCAGGGGGTTTACTGATGTTAATCGGGTCTTGATTCGCTTGACGCTGCTG"
MET

hey, is binding signal for this one >= 5 z-score? "CCGATTAACATCAAATTTCCCACTGATGTTAATCGGGTCTTGATTCGCTTGACGCTGCTG"
NOT MET

hey, is binding signal for this one >= 5 z-score? "CCGATTAACATCAGGGGATGTACTGATGTTAATCGGGTCTTGATTCGCTTGACGCTGCTG"
MET

hey, is binding signal for this one >= 5 z-score? "CCGATTAACATCAGGGGATATAATGATGTTAATCGGGTCTTGATTCGCTTGACGCTGCTG"
NOT MET

hey, is binding signal for this one >= 5 z-score? "CCGATTAACATCAAAATTCCCTCTGATGTTAATCGGGTCTTGATTCGCTTGACGCTGCTG"
MET

hey, is binding signal for this one >= 5 z-score? "CCGATTAACATCAGGGGCAGTACTGATGTTAATCGGGTCTTGATTCGCTTGACGCTGCTG"
NOT MET

hey, is binding signal for this one >= 5 z-score? "CCGATTAACATCAGGCATCCCCATGATGTTAATCGGGTCTTGATTCGCTTGACGCTGCTG"
NOT MET

hey, is binding signal for this one >= 5 z-score? "CCGATTAACATCAGGGGAAGAAATGATGTTAATCGGGTCTTGATTCGCTTGACGCTGCTG"
NOT MET
